assay target: matrix metalloproteinase 1 (MMP-1) (Homo sapiens)
Construct: gene MMP1
Sequence (P03956 100-469): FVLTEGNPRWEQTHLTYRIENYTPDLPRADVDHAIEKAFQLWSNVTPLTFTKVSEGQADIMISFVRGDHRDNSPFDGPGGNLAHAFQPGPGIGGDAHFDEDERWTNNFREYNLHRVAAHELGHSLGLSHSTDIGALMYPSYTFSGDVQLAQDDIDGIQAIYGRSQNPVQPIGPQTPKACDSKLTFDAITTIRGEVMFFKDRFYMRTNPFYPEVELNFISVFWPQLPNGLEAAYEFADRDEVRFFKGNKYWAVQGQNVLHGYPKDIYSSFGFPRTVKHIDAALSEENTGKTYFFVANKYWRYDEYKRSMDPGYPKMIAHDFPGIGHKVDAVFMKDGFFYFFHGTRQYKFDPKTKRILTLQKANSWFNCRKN
measurement description: colorimetric MMP-1 enzyme assay (ENZ BML-AK404-0001 kit, A412nm)
Format: biochemical
readout: pIC50
Conceptually, pIC50 converts a concentration in mol/L into minus its log10.

Inquiry: State the recorded pIC50 for this entry: `COc1ccc([C@]2(C)CCN([C@H](C)C(=O)NO)C2=O)cc1`
Reply text: 6.44
